Tested on: HepG2 cells
protocol-notes: HepG2 cytotoxicity counter-screen
assay-conditions: mean of the HepG2 TOX50 values
# if measured Mean TOX < 10 µM: Criterion met  # else: Criterion not met

Query string: Consider the compound "Cc1ccc(C)c(S(=O)(=O)NCC2CCN(Cc3ccc(O)cc3)CC2)c1.O=C(O)C(F)(F)F" . Is its Mean TOX strictly less than 10 µM?
Result string: Criterion not met

Query string: Identify whether the compound "C=CCNc1cc(-c2ccccn2)nc(-c2ccccn2)n1" records Mean TOX below 10 µM.
Result string: Criterion not met

Query string: Bench note: check whether "Fc1ccc2[nH]c(-c3ccc(-c4ccc(CNCCN5CCNCC5)cc4)cc3)nc2c1.O=C(O)C(F)(F)F" shows Mean TOX below 10 µM
Result string: Criterion not met

Query string: State whether 10 µM exceeds Mean TOX recorded for "c1ccc(-c2nc(Nc3nc4ccccc4[nH]3)[nH]c2-c2ccccc2)cc1" .
Result string: Criterion not met

Query string: Problem: For the compound "CCN(CC)CCN(Cc1ccc(-c2ccc(C(F)(F)F)cc2)cc1)C(=O)Cn1cc(Cc2cnn(C)c2)c(=O)nc1/C=C/c1ccc(F)cc1.O=C(O)C(O)C(O)C(=O)O" , is Mean TOX under 10 µM?
Result string: Criterion not met

----------
So I've got a bunch of compounds here, and I need their HitlevelM values.
Tested on: P. falciparum male gametocytes
protocol-notes: P. falciparum Dual Gamete Formation Assay (PfDGFA), male readout (exflagellation)
Type: cell-based, Plasmodium falciparum NF54
assay-conditions: 2µM, 24h preincubation; hits selected on >50% inhibition in the male readout across replicates
Experimental: […] The Pf DGFA was performed as described in Delves et al. 2016 [17]. […] Exflagellation was recorded by capturing 10 frames over 1 s under brightfield illumination using a x4 objective with a 1.5x zoom (effectively x6) attached to an automated Nikon Ti fluorescence microscope. […] The plates were then returned to the microscope and female gametes imaged at x6 using fluorescence microscopy. […]
Answers are plain numbers.

Reference set, count: 3
1. Cc1ccc(-n2c(C)nc3c(Nc4ccc(-c5ccncc5)cc4)ncnc32)c(C)c1 = 2
2. Cc1nc(N)nc(N)c1-c1ccc(Br)c([N+](=O)[O-])c1 = 0
3. O=C(O)C(F)(F)F.c1ccc(CN2CCC(NCc3ccc(-c4cccc(CNC5CCCC5)c4)cc3)CC2)cc1 = 0

Respectfully, I request HitlevelM for each entry included below.
1. C[C@H](Cc1ccc(OCCNC[C@H](O)c2cccc(Cl)c2)cc1)NC[C@H](O)c1ccc(Cl)c(Cl)c1.O
2. CC(C)c1cc2c(ccc3nc(N)nc(N)c32)[nH]1

Result string:
1
0

Each of the following entries comes with a recorded value; kindly state HitlevelM for each.
1. CN1CCN(Cc2nc(-c3ccc4c(Nc5ccc(F)c(O)c5)ccnc4c3)cs2)CC1
2. COc1ccc(CCNCCCCCCNCCCc2ccc(Cl)cc2)cc1OC.Cl
3. COc1ccc(CNC2CCN(C)CC2)cc1-c1ccc(S(=O)(=O)NC2CCC2)s1.O=C(O)C(F)(F)F
4. Cc1nc(N)nc(N)c1CCCOc1ccccc1Br
5. Nc1nc(N)c2c(Cl)c(N3CCOCC3)ccc2n1
6. CN(C)CCCNc1nccc(N(C)c2ccc(NC(=O)Nc3cc(C(F)(F)F)ccc3F)cc2)n1.O=C(O)C(F)(F)F
7. Cc1ccc(N2C(N)=NC(N)=NC2(C)C)cc1Cl.Cl
8. CC1(C)N=C(N)N=C(N)N1c1ccc(Oc2ccc(Cl)cc2)c(Cl)c1

Result string:
1. 0
2. 0
3. 2
4. 0
5. 0
6. 2
7. 0
8. 0

Could I get HitlevelM for every one of these entries?
1. CCCCCOc1ccc(N2C(N)=NC(N)=NC2(C)C)cc1.Cl
2. CN1CCC(N2CCN(Cc3cccc(-c4ccc(-c5nc6cc(F)ccc6[nH]5)cc4)c3)CC2)CC1.O=C(O)C(F)(F)F
3. CCc1cc2c3c(N)nc(N)nc3ccc2n1CC
4. CC(CCCC(=O)Nc1ccc(CC(C)NCCc2cccc(Cl)c2)cc1)NCCc1cccc(Cl)c1 (centres unmarked)
5. COc1cc(Cc2cnc(N)nc2N)cc(OCCCC(=O)O)c1OC
6. COc1cc(Br)c(S(=O)(=O)n2cc(CN3CCC(N)CC3)c3cc(Cl)ccc32)cc1OC.O=C(O)C(F)(F)F
7. COc1cc2ccccc2c(OC)c1CCNCCCCNCCc1c(OC)cc2ccccc2c1OC.CS(=O)(=O)O

Result string:
0
0
0
2
0
0
2

----------
Provide the recorded inhibition at 2 µM for the entries that follow.
System: P. falciparum male gametocytes
protocol-notes: P. falciparum Dual Gamete Formation Assay (PfDGFA), male readout (exflagellation)
Assay type: cell-based, Plasmodium falciparum NF54
assay-conditions: Plasmodium falciparum; 2µM, 24h preincubation with gametocytes; replicate R1; read-out: % inhibition male (individual replicates) R1
One number for each entry, in %.

Please supply inhibition at 2 µM for each of the following items, keeping them in order.
1. COc1ccc2nc(N=C3NC4(c5ccccc5)NC(=Nc5nc6ccc(OC)cc6[nH]5)NC4(c4ccccc4)N3)[nH]c2c1.O=C(O)C(F)(F)F (stereo not drawn)
2. O=C(Cc1cccc(O)c1)NCC(Cc1ccc(O)cc1)c1ccccc1 (stereo not drawn)
3. Oc1cccc(CNCCCN(Cc2ccccc2)c2ccccc2)c1
4. CN(C)c1ccnc2ccc(NC(=O)Nc3ccnc4ccccc34)cc12

Result string:
1. 95.5
2. 97.5
3. 96.8
4. 97.3

----------
Test system: P. falciparum male gametocytes
protocol-notes: P. falciparum Dual Gamete Formation Assay (PfDGFA), male readout (exflagellation)
Assay type: cell-based, Plasmodium falciparum NF54
assay-conditions: 2µM, 24h preincubation with gametocytes prior to induction of gametogenesis; replicate R3
Assign % inhibition male (individual replicates) R3 to each entry below.
Numbers only, in %.

Here are 4 molecules together with their reported answers.
1) CCc1ccccc1-c1csc(C(=O)NCC2CCN(Cc3ccc(C(C)(C)C)cc3)C2)c1.O=C(O)C(F)(F)F (centres unmarked) [TCMDC-134448] = -15.7
2) CN1CCC(NCc2ccc(-c3cccc(S(=O)(=O)NCc4ccccc4)c3)cc2)CC1.O=C(O)C(F)(F)F [TCMDC-132238] = -3.8
3) COc1cc2ccccc2cc1OCCCN1CCN(CC(c2ccc(F)cc2)N2CCN(C(C)C)CC2)CC1.Cl (centres unmarked) [TCMDC-135496] = -16.9
4) C[C@@H](Oc1cc(-n2cnc3ccc(OCC4CCN(S(C)(=O)=O)CC4)cc32)sc1C(N)=O)c1ccccc1C(F)(F)F [TCMDC-135685] = 32.6

Hi! Can you tell me % inhibition male (individual replicates) R3 for each of these molecules?
1. Cl.c1ccc2c(NCCCCCCCCCNc3c4ccccc4nc4ccccc34)c3ccccc3nc2c1 [TCMDC-124286]
2. COc1cc(Br)c(S(=O)(=O)n2cc(CN3CCC(N)CC3)c3cc(Cl)ccc32)cc1OC.O=C(O)C(F)(F)F [TCMDC-136384]
3. N=C(N)Nc1nc(-c2cccc(NC(=O)NCCc3c[nH]c4ccc(OCc5ccccc5)cc34)c2)cs1 [TCMDC-139557]
4. CCOc1ccccc1CCNC(C)Cc1ccc(C(=O)Nc2ccc(CC(C)NCCc3cccc(Cl)c3)cc2)cc1 (centres unmarked) [TCMDC-139805]

Result string:
1.0
-10.3
4.0
21.2

----------
Tested on: P. falciparum female gametocytes
protocol-notes: P. falciparum Dual Gamete Formation Assay (PfDGFA), female readout (Pfs25-positive female gametes)
Format: cell-based, Plasmodium falciparum NF54
assay-conditions: PfDGFA at 2µM, 24h preincubation with gametocytes; average of replicates
quantity-measured: Average inhibition female (%)
Number first, unit second.

Examples with answers:
1. CN(CCCCN)Cc1ccc(-c2ccc(Cl)cc2)cc1 = 20.6%
2. CC(CNC(=N)c1cccc(C(=N)NCC(C)Oc2cccc(C3CCCCC3)c2)n1)Oc1cccc(C2CCCCC2)c1.Cl (centres unmarked) = 40.6%
3. C[C@H](Cc1ccc(OCCCCCOc2ccc(C[C@@H](C)NC[C@H](O)c3cccc(Cl)c3)cc2)cc1)NC[C@H](O)c1cccc(Cl)c1.Cl = 27.5%
4. COc1ccc(CNCCCCCCNCc2ccc(OC)c3ccccc23)c2ccccc12.Cl = 47.3%
5. COc1ccc(-c2cnc3[nH]cc(-c4ccncc4)c3c2)cc1OC = 15.5%
6. CCN(CC)CCOc1ccc(C(O)(C#CC(O)(c2ccc(C)cc2)c2ccc(OCCN(CC)CC)cc2)c2ccc(C)cc2)cc1 (centres unmarked) = 31.2%

Please go through the list and note Average inhibition female (%) for each compound.
1. CS(=O)(=O)O.FC(F)(F)COc1ccc2ccccc2c1CCNCCCCNCCc1c(OCC(F)(F)F)ccc2ccccc12
2. COc1ccc2c(c1CCNCCCCNCCc1c(OC)ccc3c1CCCC3)CCCC2.CS(=O)(=O)O
3. COc1ccc(CNC2CCN(C)CC2)cc1-c1ccc(S(=O)(=O)NCc2ccccc2)c(F)c1.O=C(O)C(F)(F)F

Result string:
1. 40.6%
2. 79.4%
3. 25.6%

Report Average inhibition female (%) for every entry below.
1. CN1CCC(N2CCN(Cc3cccc(-c4ccc(-c5nc6cc(C(F)(F)F)ccc6[nH]5)cc4)c3)CC2)CC1.O=C(O)C(F)(F)F
2. COc1cc2nc(NCCCN3CCCCC3)nc(NCc3ccccc3)c2cc1OC
3. Fc1ccc2[nH]c(-c3cccc(-c4cccc(CNCCN5CCNCC5)c4)c3)nc2c1.O=C(O)C(F)(F)F
4. COc1cc2ccccc2c(CNCCCCCCNCc2c(OC)c(OC)cc3ccccc23)c1OC.CS(=O)(=O)O
5. COc1ccc2c(OC)c(CNCCCCCCNCc3ccc4cc(OC)ccc4c3OC)ccc2c1.CS(=O)(=O)O

Result string:
1: 30.2%; 2: 56.5%; 3: -9.5%; 4: 31.5%; 5: 35.6%
